# assay-overview: PK of voruciclib, daily dosing continuously (Table 4)
# Format: in vivo
# condition-notes: human, plasma, oral, 75 mg, Day 1, daily dosing continuously, mean; read-out: t½ (converted)
measurement-type: half-life (min)
# output: bare number, implied unit min

Fill in the blank: the reported half-life of "CN1CC[C@@H](c2c(O)cc(O)c3c(=O)cc(-c4ccc(C(F)(F)F)cc4Cl)oc23)[C@@H]1CO" is ____.
1310

---

# System: KYSE-410
# assay-overview: 72-hour CellTiter-Glo 2.0 growth inhibition screen (single agent, 9x9 combination dose matrix)
# Format: cell-based
# condition-notes: KYSE-410, Esophageal; Additional Single Agent Responses (inhibition, % I), 72 h
measurement-type: pEC50
Remember, pEC50 is on a log scale: it is -log10 of the molar concentration.

Fill in the blank: the reported pEC50 of "CN1CC[C@@H](c2c(O)cc(O)c3c(=O)cc(-c4ccc(C(F)(F)F)cc4Cl)oc23)[C@@H]1CO" is ____.
5.76

---

# assay-overview: PK of voruciclib, daily dosing continuously (Table 4)
# Type: in vivo
# condition-notes: human, plasma, oral, 75 mg, Day 1, daily dosing continuously, mean
measurement-type: AUC(0-inf) (ng·h/mL)
# output: bare number, implied unit ng·h/mL

Fill in the blank: the reported AUC(0-inf) of CN1CC[C@@H](c2c(O)cc(O)c3c(=O)cc(-c4ccc(C(F)(F)F)cc4Cl)oc23)[C@@H]1CO [Voruciclib] is ____.
3420

---

# System: LS-513
# assay-overview: 72-hour CellTiter-Glo 2.0 growth inhibition screen (single agent, 9x9 combination dose matrix)
# Format: cell-based
# condition-notes: LS-513, Colorectal; growth inhibition (GI) curve, single agent, 72 h
# Protocol: Growth inhibition was determined using a 72-hour CellTiter-Glo®2.0 proliferation assay. Combination format was a 9×9 dose matrix. […] Results have been supplied as both Chalice Analyzer files (.mcc) and raw luminescence data. Cell lines that have been preserved in liquid nitrogen are thawed and expanded in growth media (see Appendix I). […] Assay plates are incubated with compound for 3 days and are then analyzed using CellTiter-Glo 2.0. […]
measurement-type: EC50 (nM)
# output: bare number, implied unit nM

Query EC50 on LS-513 for CN1CC[C@@H](c2c(O)cc(O)c3c(=O)cc(-c4ccc(C(F)(F)F)cc4Cl)oc23)[C@@H]1CO [MEI-522(Voruciclib)]
878

---

# Tested on: SW48
# assay-overview: 72-hour CellTiter-Glo 2.0 growth inhibition screen (single agent, 9x9 combination dose matrix)
# Format: cell-based
# condition-notes: Homo sapiens, SW48, 72 h, SW48, Colorectal; Additional Single Agent Responses (inhibition, % I), 72 h
# Procedure: Growth inhibition was determined using a 72-hour CellTiter-Glo®2.0 proliferation assay. Combination format was a 9×9 dose matrix. […] Results have been supplied as both Chalice Analyzer files (.mcc) and raw luminescence data. Cell lines that have been preserved in liquid nitrogen are thawed and expanded in growth media (see Appendix I). […] Assay plates are incubated with compound for 3 days and are then analyzed using CellTiter-Glo 2.0. […]
measurement-type: pEC50
Remember, pEC50 is on a log scale: it is -log10 of the molar concentration.

CC[C@@H]1C(=O)N(C)c2cnc(Nc3ccc(C(=O)N[C@H]4CC[C@H](N5CCN(CC6CC6)CC5)CC4)cc3OC)nc2N1C(C)C: 8.33
CN1CCN(c2ccc(OC(F)(F)F)c(Nc3ncc4c(n3)-c3c(c(C(N)=O)nn3CCO)CC4)c2)CC1: 7.86

Fill in the blank: the reported pEC50 of "C=CC(=O)N1CCN(c2nc(=O)n(-c3c(C)ccnc3C(C)C)c3nc(-c4c(O)cccc4F)c(F)cc23)[C@@H](C)C1" is ____.
5.57

---

# assay-overview: PK of voruciclib, daily dosing continuously (Table 4)
# Type: in vivo
# condition-notes: human, plasma, oral, 75 mg, Day 1, daily dosing continuously, mean; read-out: Vz/F
measurement-type: Vd/F (L)
# output: bare number, implied unit L

Fill in the blank: the reported Vd/F of CN1CC[C@@H](c2c(O)cc(O)c3c(=O)cc(-c4ccc(C(F)(F)F)cc4Cl)oc23)[C@@H]1CO [Voruciclib] is ____.
860

---

# Tested on: LS-513
# assay-overview: 72-hour CellTiter-Glo 2.0 growth inhibition screen (single agent, 9x9 combination dose matrix)
# Format: cell-based
# condition-notes: Homo sapiens, LS-513, 72 h, LS-513, Colorectal; growth inhibition (GI) curve, single agent, 72 h
measurement-type: pEC50
Remember, pEC50 is on a log scale: it is -log10 of the molar concentration.

Worked cases, answers included:
CN1CCN(c2ccc(OC(F)(F)F)c(Nc3ncc4c(n3)-c3c(c(C(N)=O)nn3CCO)CC4)c2)CC1: 7.31
C=CC(=O)N1CCN(c2nc(=O)n(-c3c(C)ccnc3C(C)C)c3nc(-c4c(O)cccc4F)c(F)cc23)[C@@H](C)C1: 6.49

Fill in the blank: the reported pEC50 of "CC[C@@H]1C(=O)N(C)c2cnc(Nc3ccc(C(=O)N[C@H]4CC[C@H](N5CCN(CC6CC6)CC5)CC4)cc3OC)nc2N1C(C)C" is ____.
7.73

---

# assay-overview: PK of voruciclib, daily dosing continuously (Table 4)
# Assay type: in vivo
# condition-notes: human, plasma, oral, 75 mg, Day 15, daily dosing continuously, mean; read-out: Vz/F
# Text: Voruciclib half life is designated as t½ in the tables (expressed in hours). Voruciclib volume of distribution is designated as Vz/F (expressed in liters).
measurement-type: Vd/F (L)
# output: bare number, implied unit L

Fill in the blank: the reported Vd/F of "CN1CC[C@@H](c2c(O)cc(O)c3c(=O)cc(-c4ccc(C(F)(F)F)cc4Cl)oc23)[C@@H]1CO" is ____.
982

---

# assay-overview: PK of voruciclib, 2 weeks of daily dosing followed by 1 week without dosing in a 21-day cycle (Table 3)
# Type: in vivo, human
# condition-notes: human, plasma, oral, 150 mg, Day 1, 2 weeks daily dosing/1 week off, mean; read-out: Vz/F
measurement-type: Vd/F (L)
# output: bare number, implied unit L

Fill in the blank: the reported Vd/F of CN1CC[C@@H](c2c(O)cc(O)c3c(=O)cc(-c4ccc(C(F)(F)F)cc4Cl)oc23)[C@@H]1CO [Voruciclib] is ____.
1650

---

# assay-overview: PK of voruciclib, daily dosing continuously (Table 4)
# Assay type: in vivo
# condition-notes: human, plasma, oral, 500 mg, Day 15, daily dosing continuously, median
# Source text: Voruciclib half life is designated as t½ in the tables (expressed in hours). Voruciclib volume of distribution is designated as Vz/F (expressed in liters).
measurement-type: Tmax (h)
# output: bare number, implied unit h

Fill in the blank: the reported Tmax of "CN1CC[C@@H](c2c(O)cc(O)c3c(=O)cc(-c4ccc(C(F)(F)F)cc4Cl)oc23)[C@@H]1CO" is ____.
2

---

# assay-overview: PK of voruciclib, 2 weeks of daily dosing followed by 1 week without dosing in a 21-day cycle (Table 3)
# Type: in vivo, human
# condition-notes: human, plasma, oral, 150 mg, Day 13, 2 weeks daily dosing/1 week off, mean
# Excerpt: Voruciclib half life is designated as t½ in the tables (expressed in hours). Voruciclib volume of distribution is designated as Vz/F (expressed in liters).
measurement-type: half-life (min)
# output: bare number, implied unit min

Fill in the blank: the reported half-life of CN1CC[C@@H](c2c(O)cc(O)c3c(=O)cc(-c4ccc(C(F)(F)F)cc4Cl)oc23)[C@@H]1CO [Voruciclib] is ____.
1560

---

# assay-overview: PK of voruciclib, 2 weeks of daily dosing followed by 1 week without dosing in a 21-day cycle (Table 3)
# Type: in vivo, human
# condition-notes: human, plasma, oral, 300 mg, Day 13, 2 weeks daily dosing/1 week off, mean; read-out: AUC0-t
# Description: Voruciclib half life is designated as t½ in the tables (expressed in hours). Voruciclib volume of distribution is designated as Vz/F (expressed in liters).
measurement-type: AUC(0-t) (ng·h/mL)
# output: bare number, implied unit ng·h/mL

Fill in the blank: the reported AUC(0-t) of CN1CC[C@@H](c2c(O)cc(O)c3c(=O)cc(-c4ccc(C(F)(F)F)cc4Cl)oc23)[C@@H]1CO [Voruciclib] is ____.
40400

---

# assay-overview: PK of voruciclib, 2 weeks of daily dosing followed by 1 week without dosing in a 21-day cycle (Table 3)
# Type: in vivo, human
# condition-notes: human, plasma, oral, 75 mg, Day 1, 2 weeks daily dosing/1 week off, mean; read-out: AUC0-t
measurement-type: AUC(0-t)

Fill in the blank: the reported AUC(0-t) of "CN1CC[C@@H](c2c(O)cc(O)c3c(=O)cc(-c4ccc(C(F)(F)F)cc4Cl)oc23)[C@@H]1CO" is ____.
2280 ng·h/mL

src = patent US20240016781A1
